Field: pEC50. Provide a value for each of the compounds that follow.
system-under-test: PfCDPK1 (Plasmodium falciparum (isolate 3D7), UniProt P62344)
protocol-notes: biochemical
Kindly note that pEC50 refers to -log10 of the concentration in mol/L and answer with the value alone.

Ask | Fill in: pEC50 of COc1ccc2cc(-c3nn(C(C)C)c4ncnc(N)c34)ccc2c1 [Compound 7q] is ___
Reply | 6.68

Ask | Moving on to the next compound: CC(C)CC(=O)Nc1ccc(-c2nn(C(C)(C)C)c3ncnc(N)c23)cc1 [Compound 62]
Reply | 7.42

Ask | // same read-out, input: CC(C)COc1ccc2cc(-c3nn(C(C)C)c4ncnc(N)c34)ccc2c1 [Compound 43]
Reply | 6.56

Ask | Then Nc1ncnc2c1c(-c1ccc3cc(O)ccc3c1)nn2CC1CCNCC1 [Compound 119] ?
Reply | 7.11

Ask | Same question for Cn1ccc2cc(-c3nc(C(C)(C)C)n4ccnc(N)c34)ccc21 [Compound 70] please.
Reply | 7.27
